Origin of the recorded values: patent US6969711B2

- experiment-summary: Disintegration test (solubility in liquid No. 1 of the Japanese Pharmacopoeia)
- Type: physicochemical
- assay-setup: simulated gastric fluid, thermodynamic from solid; liquid No. 1 for disintegration test (Japanese Pharmacopoeia), pH 1.2, shaken two hours, room temperature, 0.45 μm filtrate
attribute-measured: solubility at 2 h (µg/mL)
The response must be a number in µg/mL with no trailing unit.

Req: Give the measured solubility at 2 h of CSc1cc(C)nc(SC)c1NC(=O)CN1CCN(CCSc2nc3ccccc3o2)CC1 [Example 24] .
Resp: 17000

Req: Here is the next compound: CC(C)c1cccc(C(C)C)c1NC(=O)CN1CCCN(CCCSc2nc3ccccc3o2)CC1 [Example 13]
Resp: 7400

Req: Here is the next compound: CC(C)c1cccc(C(C)C)c1NC(=O)CN1CCN(CCSc2nc3ncccc3o2)CC1 [Example 6]
Resp: 35000

Req: Here is the next compound: CC(C)c1cccc(C(C)C)c1NC(=O)CCCCCSc1nc2ccccc2o1 [Control 6, reference compound]
Resp: 0.05

Req: Here is the next compound: CC(C)c1cccc(C(C)C)c1NC(=O)CN1CCN(CCSc2nc3ccccc3o2)CC1 [Example 1]
Resp: 14000

----------
Kindly state melting point for each of the entries shown.

Req: Give the measured melting point of COC(=O)c1cccc2nc(SCCCN3CCN(CC(=O)Nc4c(C(C)C)cccc4C(C)C)CC3)oc12 [Example 10] .
Resp: 135 to 136 °C

Req: Here is the next compound: CCCCCCCN(CCN1CCN(CCSc2nc3ccccc3[nH]2)CC1)C(=O)Nc1c(SCC)cc(C)nc1SCC.Cl.Cl
Resp: 134 to 137 °C

Req: Here is the next compound: CC(C)c1cccc(C(C)C)c1NC(=O)CN1CCN(CCSc2nc3ccccc3s2)CC1 [Example 2]
Resp: 170 to 171 °C

Req: Here is the next compound: CC(C)c1cccc(C(C)C)c1NC(=O)NCCN1CCN(CCSc2nc3ccccc3o2)CC1 [Example 79]
Resp: 152 to 153 °C

Req: Here is the next compound: CCSc1cc(C)nc(SCC)c1NC(=O)CN1CCN(CCSc2nc3cccc(C(F)(F)F)c3o2)CC1 [Example 89]
Resp: 107 to 108 °C

Req: Here is the next compound: Cc1cc(SC(C)C)c(NC(=O)CN2CCN(CCSc3nc4ccccc4s3)CC2)c(SC(C)C)n1.Cl.Cl
Resp: 139 to 142 °C

Req: Here is the next compound: CC(C)c1cc(C(C)C)c(NC(=O)CN2CCN(CCSc3nc4ccccc4o3)CC2)c(C(C)C)c1 [Example 48]
Resp: 160 to 163 °C

Req: Here is the next compound: COC(=O)c1cccc2oc(SCCCN3CCN(CC(=O)Nc4c(C(C)C)cccc4C(C)C)CC3)nc12 [Example 11]
Resp: 132 to 133 °C

Req: Here is the next compound: CC(C)c1ccc([N+](=O)[O-])c(C(C)C)c1NC(=O)CN1CCN(CCSc2nc3cccc(C(F)(F)F)c3o2)CC1 [Example 87]
Resp: 115 to 117 °C

Req: Here is the next compound: Cc1cc(SC(C)C)c(NC(=O)CN2CCN(CCSc3nc4ccccc4[nH]3)CC2)c(SC(C)C)n1 [Example 37]
Resp: 186 to 188 °C

Req: Here is the next compound: Cc1ccc(C(C)C)c2oc(SCCN3CCN(CC(=O)Nc4c(C(C)C)cccc4C(C)C)CC3)nc12 [Example 122]
Resp: 133 to 134 °C

Req: Here is the next compound: CCOC(=O)COc1cc(C(C)C)c(NC(=O)CN2CCN(CCSc3nc4ccccc4o3)CC2)c(C(C)C)c1 [Example 77]
Resp: 118 to 120 °C

Req: Here is the next compound: CC(C)c1cccc(C(C)C)c1NC(=O)CN1CCN(CCSc2nc3cccc(C(F)(F)F)c3o2)CC1 [Example 85]
Resp: 135 to 137 °C (dec.)

Req: Here is the next compound: COc1cc(C(C)C)c(NC(=O)CN2CCN(CCSc3nc4ccccc4o3)CC2)c(C(C)C)c1 [Example 75]
Resp: 115 to 117 °C

Req: Here is the next compound: CSc1cccc2nc(SCCN3CCN(CC(=O)Nc4c(C(C)C)cccc4C(C)C)CC3)oc12 [Example 112]
Resp: 120 to 121 °C

Req: Here is the next compound: COC(=O)c1cccc2nc(SCCCN3CCN(CC(=O)Nc4c(SC)cc(C)nc4SC)CC3)oc12 [Example 30]
Resp: 76 to 79 °C
